test-summary: solvent given as SMILES
test-context: in ClCCl
measured-metric: absorption maximum (nm)
Field: numeric (nm). Do not append units.

Example entries begin here.
INSERT INTO measurements (compound, result_units, value) VALUES
  ('COC(=O)C1CCN(c2ccc3c(N4CCCCC4)c4ccc(=[N+]5CCC(C(=O)OC)CC5)cc-4oc3c2)CC1 (stereo not drawn)', 'nm', 482),
  ('CCC1=C(C)C2=C(c3ccc(-c4c5ccccc5c(-c5ccccc5)c5ccccc45)cc3)c3c(C)c(CC)c(C)n3[B-](F)(F)[N+]2=C1C', 'nm', 527),
  ('CN(C)c1ccc(C2=Nc3scc(-c4ccccc4)[n+]3[B-](F)(F)O2)cc1', 'nm', 411),
  ('CCCCCCCCOc1ccc(C#Cc2ccc(C#Cc3ccc(OCCCCCCCC)c(OCCCCCCCC)c3)c3nc4c5ccccc5c5ccccc5c4nc23)cc1OCCCCCCCC', 'nm', 461);

For reference, reported absorption maximum for CCCCCCCCCCCCn1nnc(-c2ccc(C#Cc3ccc(C#Cc4ccc(-c5nnn(CCCCCCCCCCCC)n5)cc4)c4nc5c6ccccc6c6ccccc6c5nc34)cc2)n1 stands at 428

For reference, reported absorption maximum for c1ccc(-n2nc(-c3ccc(N4c5ccccc5Oc5ccccc54)cc3)nc2-c2ccccn2)cc1 stands at 341

For reference, reported absorption maximum for Oc1ccc(Br)cc1-c1nc2c(c3c1-c1ccccc1CC3)-c1ccccc1CC2 stands at 345

For reference, reported absorption maximum for CC(C)(C)c1ccc(N(c2ccccc2)c2ccc3ccc4c(N(c5ccccc5)c5ccc(C(C)(C)C)cc5)ccc5ccc2c3c54)cc1 stands at 428

----------
test-summary: solvent given as SMILES
test-context: in c1ccccc1
Label Criterion met when absorption maximum >= 400 nm; otherwise Criterion not met.

INSERT INTO results (molecule, group) VALUES
  ('CCC1=C(C)C(=O)n2c1cc1c(C)cc(C)n1c2=O', 'Criterion met');

Lab note: next molecule to report on.
Tell me whether absorption maximum is at least 400 nm here: O=C1CCCc2c1[nH]c1cc3c(cc21)OCO3
Criterion not met

----------
test-summary: solvent given as SMILES
test-context: in ClCCl
# note: exactly 500 nm is not below, so it is no (0); use yes (1) for absorption maximum strictly under it

INSERT INTO measurements (compound, group) VALUES
  ('Cc1cc(C)c(-c2cc(-c3c(C)cc(C)cc3C)c3ccc4c(-c5c(C)cc(C)cc5C)cc(-c5c(C)cc(C)cc5C)c5ccc2c3c54)c(C)c1', 'yes (1)');

Lab note: next compound to report on.
Determine if CCN(CC)c1ccc2cc(/C=C/C(O)=C/C(C)=O)c(=O)oc2c1 shows absorption maximum strictly lower than 500 nm.
yes (1)

----------
test-summary: solvent given as SMILES
test-context: in CS(C)=O
measured-metric: absorption maximum (nm)
Field: numeric (nm). Do not append units.

Example entries begin here.
INSERT INTO results (compound, value) VALUES
  ('CCN(CC)c1ccc2cc(/C=C/C(O)=C/C(C)=O)c(=O)oc2c1', 470),
  ('COc1ccc(-c2nc3c(c4c2-c2ccc(C#N)cc2CC4)-c2ccc(C#N)cc2CC3)cc1', 331),
  ('CC1=CC(c2ccc(N(C)C)cc2)=[N+]2C1=Nc1c(C)cc(-c3ccc(N(C)C)cc3)n1[B-]2(F)F', 774),
  ('CCCCCCCCC1(CCCCCCCC)c2cc(C#Cc3ccc(N(c4ccccc4)c4ccccc4)cc3)ccc2-c2ccc(C=O)cc21', 381),
  ('CC1=N/C(=C\c2ccccc2N(C)C)C(=O)N1C', 398),
  ('CC(C)(C)c1ccc(C(C)(C)C)c(N2C(=O)c3cccc4c(-c5ccc(-c6ccc([N+](=O)[O-])cc6)s5)ccc(c34)C2=O)c1', 400);

As a next step, examine the compound that follows.
For reference, reported absorption maximum for CN(C)c1ccc(/C=C/c2cnc3ccccc3n2)cc1 stands at 435
